Source listed as patent US20140296354A1.

assay: Gelation test in solvents at room temperature; format: physicochemical; set-up: key: I, insoluble; P, precipitating; S, soluble at ~20 mg/mL; G, gel at room temperature; number is minimum gelation concentration; details: H2O, room temperature
ATTRIBUTE MEASURED: Gelation test result

INSERT INTO assay_data (compound, result) VALUES
  ('COC1OC2COC(c3ccccc3)OC2C(O)C1N(CC(=O)NC1CCCCC1)C(=O)c1ccc(Br)cc1 (stereo not drawn)', 'I'),
  ('O=C(CN(Cc1ccccc1)C(=O)c1ccc([N+](=O)[O-])cc1)NC1CCCCC1', 'P'),
  ('O=C(CN(Cc1ccccc1)C(=O)c1ccccc1)NC1CCCCC1', 'I'),
  ('CCOC(=O)CNC(=O)CN(C(=O)c1ccc(Br)cc1)C1C(OC)OC2COC(c3ccccc3)OC2C1O (stereo not drawn)', 'P'),
  ('COC1OC2COC(c3ccccc3)OC2C(O)C1N(CC(=O)NC1CCCCC1)C(=O)c1ccccc1 (stereo not drawn)', 'I'),
  ('COc1ccc(CN(CC(=O)NC2CCCCC2)C(=O)c2ccc(Br)cc2)cc1', 'P'),
  ('CC(=O)N(CC(=O)NC1CCCCC1)Cc1ccccc1', 'P');

###

Assay: Gelation test in solvents at room temperature
Type: physicochemical
Design: key: I, insoluble; P, precipitating; S, soluble at ~20 mg/mL; G, gel at room temperature; number is minimum gelation concentration
Settings: H2O, room temperature
Method: Gelation tests were performed by adding incremental amounts of compounds to a solvent or solvent system at room temperature and observing the results (i.e., gel formation, solubility of compounds, insolubility of compounds, or formation of a precipitate). […] The term “precipation” means that the compound dissolves upon heating and sonicating, however, it crashes out of solution when the heat is removed. After the compounds were synthesized, they were screened for gelation properties. […]
ATTRIBUTE MEASURED: Gelation test result

INSERT INTO results (structure_notation, attribute_measured, result) VALUES
  ('O=C(CN(Cc1ccccc1)C(=O)c1ccc(Br)cc1)NC1CCCCC1', 'Gelation test result', 'P'),
  ('C[C@H](c1ccccc1)N(CC(=O)NC1CCCCC1)C(=O)c1ccc(Br)cc1', 'Gelation test result', 'P');

###

experiment: Gel melting temperatures; type: physicochemical; conditions: gel in DMSO:H2O (1:2) at its minimum gelation concentration
Would you mind labelling by T1, temperature at which gel begins to melt? At or over 90 °C is Condition met, under is Condition not met.

INSERT INTO measurements (compound, class_name) VALUES
  ('CCOC(=O)CNC(=O)CN(Cc1ccc(OC)cc1)C(=O)c1ccc(Br)cc1', 'Condition not met'),
  ('C#CCCC(=O)N(CC(=O)NC1CCCCC1)Cc1ccccc1', 'Condition met'),
  ('CCOC(=O)CNC(=O)CN(C(=O)c1ccc(Br)cc1)C1C(OC)OC2COC(c3ccccc3)OC2C1O (stereo not shown)', 'Condition met'),
  ('CCOC(=O)CNC(=O)CN(Cc1ccc(OC)cc1)C(=O)c1ccccc1', 'Condition not met'),
  ('O=C(CN(Cc1ccccc1)C(=O)c1ccc(Br)cc1)NC1CCCCC1', 'Condition not met');

###

assay: Gelation test in solvents at room temperature; type: physicochemical; design: key: I, insoluble; P, precipitating; S, soluble at ~20 mg/mL; G, gel at room temperature; number is minimum gelation concentration; conditions: DMSO:H2O (1:2), room temperature
ATTRIBUTE MEASURED: Gelation test result

INSERT INTO measurements (structure_notation, result) VALUES
  ('C[C@H](c1ccccc1)N(CC(=O)NC1CCCCC1)C(=O)c1ccc(Br)cc1', 'P'),
  ('C#CCCC(=O)N(CC(=O)NC1CCCCC1)Cc1ccccc1', 'G'),
  ('CCOC(=O)CNC(=O)CN(Cc1ccc(OC)cc1)C(=O)c1ccccc1', 'G'),
  ('CC(=O)N(CC(=O)NC1CCCCC1)Cc1ccccc1', 'P'),
  ('O=C(CN(Cc1ccccc1)C(=O)c1ccc(Br)cc1)NC1CCCCC1', 'G');
